- System: Vibrio vulnificus
- assay-procedure: Antibacterial activity against Vibrio vulnificus V1 incubated for 16 to 20 hrs
- Format: functional
- applied-conditions: time 16-20 hrs
Let's look at some substances and their measured MIC.

Here's what some known entries look like.
* H-KKCIAKAILKKAKKLLKKLVNP-OH | 12.5 µg/mL
* H-FKWKSVLKGVKGFVKGYF-OH | 12.5 µg/mL
* COLISTIN | 50 µg/mL

Query substance follows.
Record "H-KKCIAKAILKKAKKLLKDLVNP-OH" . Reported MIC: 12.5 µg/mL

* * *

- Tested on: Streptococcus agalactiae
- assay-procedure: Antibacterial activity against Streptococcus agalactiae incubated for 16 to 20 hrs
- Type: functional
- applied-conditions: time 16-20 hrs
Let's look at some substances and their measured MIC.
Your answer is read as mg/L, so omit the unit and give the number.

Here's what some known entries look like.
- COLISTIN: 50
- H-FKWKSVLKGVKGFVKGYF-OH: 3.12
- H-KKCIAKAILKKAKKLLKKLVNP-OH: 3.12

Query substance follows.
Record "H-KKCIAKAILKKAKKLLKDLVNP-OH" . Reported MIC: 3.12
